Source: ChEMBL document CHEMBL1201862

tested on: 786-0; assay: NCI tumour cell line growth inhibition, 48 h
Calls of active or inactive are those of the source. No stated cut-off is given here; in the data, active = GI50 up to about 1.1 µM and inactive = higher.
readout: GI50

CC(C)=CCC/C(C)=C/CC/C(C)=C/[C@@H]1[C@@H](CO)[C@]1(C)CC/C=C(\C)CCC=C(C)C	18.4 µM (inactive)
NC(=O)C(=CNC(=S)Nc1ccc(Cl)c(Cl)c1)C(N)=O	> 71.1 µM (inactive)
CC(=O)Nc1ccc2c3c(cc(O)c2c1)N(C(=O)CCCCC(=O)Nc1ccc2c4c(cc(O)c2c1)N(C(=O)OC(C)(C)C)CC4CCl)CC3CCl (centres undefined)	2.76 µM (inactive)
Cn1ccnc1Sc1ccc(/C=N/NC(=O)c2ccccc2[N+](=O)[O-])cc1[N+](=O)[O-]	68.9 µM (inactive)
C[C@@]12[C@H]3CC[C@@H]1[C@H](O)C(=O)N2CC3	> 100 µM (inactive)
Fc1cccc(F)c1C1SCc2nc3cc(Cl)c(Cl)cc3n21 (centres undefined)	> 73.5 µM (inactive)

Dear colleague, I am looking for the recorded GI50 of the following molecule: CCOC(=O)C(O)(C(=O)OCC)c1cc(C(C)(C)C)c(O)c(C(C)(C)C)c1
51.4 µM (inactive)

Please answer likewise for N#CCCN(CCC#N)c1ccc(/C=C2\N=C(c3ccccc3)N(NC(=O)c3ccncc3)C2=O)cc1
> 100 µM (inactive)

Please answer likewise for CN(C)CCCNc1c2c(=O)n(C)c(=O)nc-2n(C)c2ccccc12
5.68 µM (inactive)
